Assay: Pharmacokinetic profiling in rat (IV and PO)
Assay type: in vivo, male Sprague-Dawley rats
Details: male, Sprague-Dawley, plasma; Rat IV, 1 mg/kg, n = 3, mean ± standard deviation
recordedEndpoint: clearance
Give the value; after it, write the unit.

Ask | Kindly indicate its recorded clearance. Item: `O=C1NCCc2c1cnn2-c1ccnc(Cc2cc(F)cc(C(F)(F)F)c2)c1`
Reply | 16.4 mL/min/kg

###

The following compounds are listed with their measured Emax values.
Biological target: human GPR52 (Homo sapiens)
Sequence (Q9Y2T5 whole entry): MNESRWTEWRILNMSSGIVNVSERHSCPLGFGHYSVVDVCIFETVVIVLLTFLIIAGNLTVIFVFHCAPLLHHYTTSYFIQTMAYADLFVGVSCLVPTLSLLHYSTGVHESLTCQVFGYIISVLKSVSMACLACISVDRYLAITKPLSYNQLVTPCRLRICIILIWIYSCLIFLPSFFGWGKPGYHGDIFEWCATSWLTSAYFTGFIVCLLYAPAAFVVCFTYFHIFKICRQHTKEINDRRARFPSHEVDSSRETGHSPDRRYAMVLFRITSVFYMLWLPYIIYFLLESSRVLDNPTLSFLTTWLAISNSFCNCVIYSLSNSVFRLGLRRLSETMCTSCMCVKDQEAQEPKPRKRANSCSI
Experiment: GPR52 Agonist Functional cAMP Assay;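 also: HEKf cells transduced with GPR52 BacMam for 24 h, 2000 per well, exposed to compounds 30 min at 37° C with 0.5 mM IBMX, cAMP read by HTRF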
Settings: maximal response normalised to DMSO (0%) and maximal compound 7m (J. Med. Chem., 2014, 57, 5226) response (100%)
Only the number, expressed in %, is required.

{"columns": ["molecularString", "Emax / %"],
 "data": [
  ["O=C1NCCCc2c1nnn2-c1ccnc(Cc2cc(F)cc(C(F)(F)F)c2)c1", 90],
  ["COCCN1CCc2c(cnn2-c2ccnc(Cc3cc(F)cc(C(F)(F)F)c3)c2)C1=O", 94],
  ["O=C1NCCc2c1cnn2-c1ccnc(C(F)(F)c2cc(F)cc(C(F)(F)F)c2)c1", 55]
]}

Continue with the next compound.
Ask | Specify the recorded Emax for `O=C1NOCc2c1cnn2-c1cc(Cc2cc(F)cc(C(F)(F)F)c2)ccn1` , system: human GPR52 (Homo sapiens).
Reply | 81
